Biological target: UniProt:P07711
Test: Cathepsin L inhibition assay (Z-LR-AMC fluorogenic substrate)
Assay type: biochemical
Settings: 25 pM cathepsin L, 5 uM Z-LR-AMC, pH 6.0; read-out: IC50 Cathepsin L
For each entry below, report its pIC50 value.
Give bare numbers, as −log10 of the molar value.

Look over these answered cases.
Cc1cc[nH]c(=O)c1C(=O)NC[C@H](NC(=O)c1cncc2ccccc12)c1ccc2ccccc2c1 (single isomer, unassigned) [(103)] :: 4.43
Cc1cc[nH]c(=O)c1C(=O)NC[C@H](NC(=O)c1cncc2ccccc12)c1ccc2ccccc2c1 (single isomer, unassigned) [(102)] :: 4.32

Report pIC50 from UniProt:P07711 testing of O=C(NCC(NC(=O)C1COc2ccccc21)c1ccccc1)c1cccc2cnsc12 (stereo not shown)
4.99

###

Target: cathepsin L (Homo sapiens (Human))
Sequence (P07711 114-333): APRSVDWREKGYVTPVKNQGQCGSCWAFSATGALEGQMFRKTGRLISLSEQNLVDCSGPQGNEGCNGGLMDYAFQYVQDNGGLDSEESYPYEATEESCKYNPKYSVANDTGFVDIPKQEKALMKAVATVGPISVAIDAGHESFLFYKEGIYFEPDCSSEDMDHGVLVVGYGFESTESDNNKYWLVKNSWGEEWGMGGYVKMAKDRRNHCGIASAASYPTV
Test: Cathepsin L inhibition assay (Z-LR-AMC fluorogenic substrate)
Format: biochemical
Settings: positive control tested in parallel; read-out: IC50 cathepsin L (positive control)
Result type: pIC50
One number for each entry, as −log10 of the molar value.

Identify pIC50 associated with the compound CC(C)C[C@H](NC(=O)OCc1ccccc1)C(=O)N[C@@H](CC1CCNC1=O)C(O)S(=O)(=O)O (stereo partly shown) [GC-376, reference compound]
8.70
